- Test system: 885724-159-R-J1-PDC complex spheroid viability
- Assay explanation: Anticancer human tumor 885724-159-R-J1-PDC patient-derived pancreatic adenocarcinoma cell line growth inhibition [POLQ]
- Measurement parameters: second compound 0.316 µM; first compound 0.0316 µM; active compounds read low
In plain terms, low viability, T/C, meaning strictly below 70%, gives Met, and everything else gives Not met.

See these solved cases before continuing.
CNCc1ccc(-c2[nH]c3cc(F)cc4c3c2CCNC4=O)cc1 + COC1C(OC(N)=O)C(O)C(Oc2ccc3c(O)c(NC(=O)c4ccc(O)c(CC=C(C)C)c4)c(=O)oc3c2C)OC1(C)C = Not met
CCc1c2c(nc3ccc(O)cc13)-c1cc3c(c(=O)n1C2)COC(=O)[C@]3(O)CC + Nc1ccc(C#CCN(C(=O)Cc2ncc(C(F)(F)F)cc2C(F)(F)F)c2ccc(F)cc2)nn1 = Met
Cn1ncnc1[C@H]1c2n[nH]c(=O)c3cc(F)cc(c23)N[C@@H]1c1ccc(F)cc1 + COC1C(OC(N)=O)C(O)C(Oc2ccc3c(O)c(NC(=O)c4ccc(O)c(CC=C(C)C)c4)c(=O)oc3c2C)OC1(C)C = Not met
O=c1[nH]cc(F)c(=O)[nH]1 + Cc1cccc(N(C)C(=O)C2C(O)CCN2c2nc(C)cc(C(F)(F)F)c2C#N)c1 = Not met
CC1COCCN1c1cc(C2(S(C)(=N)=O)CC2)nc(-c2ccnc3[nH]ccc23)n1 (stereo unspecified) + COC1C(OC(N)=O)C(O)C(Oc2ccc3c(O)c(NC(=O)c4ccc(O)c(CC=C(C)C)c4)c(=O)oc3c2C)OC1(C)C = Not met

Report whether reported viability, T/C is lower than 70% (strictly) for Cn1ncnc1[C@H]1c2n[nH]c(=O)c3cc(F)cc(c23)N[C@@H]1c1ccc(F)cc1 + Cc1cccc(N(C)C(=O)C2C(O)CCN2c2nc(C)cc(C(F)(F)F)c2C#N)c1
Not met

Report whether reported viability, T/C is lower than 70% (strictly) for CC1COCCN1c1cc(C2(O)CC3CCC(C2)O3)c2cnn(-c3ccn[nH]3)c2n1 (stereo unspecified) + Nc1ccc(C#CCN(C(=O)Cc2ncc(C(F)(F)F)cc2C(F)(F)F)c2ccc(F)cc2)nn1
Not met

Report whether reported viability, T/C is lower than 70% (strictly) for COc1cccc(OCCCN)c1-c1cc(Nc2cnc(C#N)cn2)n[nH]1 + COC1C(OC(N)=O)C(O)C(Oc2ccc3c(O)c(NC(=O)c4ccc(O)c(CC=C(C)C)c4)c(=O)oc3c2C)OC1(C)C
Met

Report whether reported viability, T/C is lower than 70% (strictly) for Nc1ccn(C2OC(CO)C(O)C2(F)F)c(=O)n1 (stereo unspecified) + COC1C(OC(N)=O)C(O)C(Oc2ccc3c(O)c(NC(=O)c4ccc(O)c(CC=C(C)C)c4)c(=O)oc3c2C)OC1(C)C
Met

Report whether reported viability, T/C is lower than 70% (strictly) for Nc1ccn(C2OC(CO)C(O)C2(F)F)c(=O)n1 (stereo unspecified) + Cc1cccc(N(C)C(=O)C2C(O)CCN2c2nc(C)cc(C(F)(F)F)c2C#N)c1
Met

Report whether reported viability, T/C is lower than 70% (strictly) for CCc1c2c(nc3ccc(O)cc13)-c1cc3c(c(=O)n1C2)COC(=O)[C@]3(O)CC + Cc1cccc(N(C)C(=O)C2C(O)CCN2c2nc(C)cc(C(F)(F)F)c2C#N)c1
Met

----------
- Tested on: 885724-159-R-J1-PDC complex spheroid viability
- Assay explanation: Anticancer human tumor 885724-159-R-J1-PDC cell line growth inhibition [POLQ];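 note: spheroids exposed to compounds for 7 days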
- Measurement parameters: second compound 0.1 µM; first compound 0.01 µM; active compounds read low
In plain terms, low viability, T/C, meaning strictly below 60%, gives Condition met, and everything else gives Condition not met.

See these solved cases before continuing.
CC[C@@]1(O)C(=O)OCc2c1cc1n(c2=O)Cc2cc3c(CN(C)C)c(O)ccc3nc2-1 + COC1C(OC(N)=O)C(O)C(Oc2ccc3c(O)c(NC(=O)c4ccc(O)c(CC=C(C)C)c4)c(=O)oc3c2C)OC1(C)C = Condition not met
CCc1c2c(nc3ccc(O)cc13)-c1cc3c(c(=O)n1C2)COC(=O)[C@]3(O)CC + Cc1cccc(N(C)C(=O)C2C(O)CCN2c2nc(C)cc(C(F)(F)F)c2C#N)c1 = Condition not met
COc1cccc(OCCCN)c1-c1cc(Nc2cnc(C#N)cn2)n[nH]1 + Nc1ccc(C#CCN(C(=O)Cc2ncc(C(F)(F)F)cc2C(F)(F)F)c2ccc(F)cc2)nn1 = Condition met

Next molecule, please.
Report whether reported viability, T/C is lower than 60% (strictly) for C=CCn1c(=O)c2cnc(Nc3ccc(N4CCN(C)CC4)cc3)nc2n1-c1cccc(C(C)(C)O)n1 + Nc1ccc(C#CCN(C(=O)Cc2ncc(C(F)(F)F)cc2C(F)(F)F)c2ccc(F)cc2)nn1
Condition not met

----------
Below, each of the compounds is paired with its reported viability, T/C value.
- System: 885724-159-R-J1-PDC complex spheroid viability
- Assay explanation: Anticancer human tumor 885724-159-R-J1-PDC cell line growth inhibition [POLQ];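 note: spheroids exposed to compounds for 7 days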
- Measurement parameters: second compound 0.316 µM; first compound 0.0316 µM; active compounds read low
Report the figure in % without appending any unit label.

Example compounds with recorded viability, T/C:
CC[C@@]1(O)C(=O)OCc2c1cc1n(c2=O)Cc2cc3c(CN(C)C)c(O)ccc3nc2-1 + Cc1cccc(N(C)C(=O)C2C(O)CCN2c2nc(C)cc(C(F)(F)F)c2C#N)c1 = 74.9
COc1cccc(OCCCN)c1-c1cc(Nc2cnc(C#N)cn2)n[nH]1 + Cc1cccc(N(C)C(=O)C2C(O)CCN2c2nc(C)cc(C(F)(F)F)c2C#N)c1 = 40.9
CCc1cc2c(N3CCc4c(cc(Cn5ccnc5)cc4-c4cn(C)nc4C(F)(F)F)C3=O)ccnc2c(OC)n1 + COC1C(OC(N)=O)C(O)C(Oc2ccc3c(O)c(NC(=O)c4ccc(O)c(CC=C(C)C)c4)c(=O)oc3c2C)OC1(C)C = 89.3

Consider the additional compound presented here.
Write down the reported viability, T/C of Nc1ccn(C2OC(CO)C(O)C2(F)F)c(=O)n1 (centres undefined) + Nc1ccc(C#CCN(C(=O)Cc2ncc(C(F)(F)F)cc2C(F)(F)F)c2ccc(F)cc2)nn1 , test system: 885724-159-R-J1-PDC complex spheroid viability.
72

----------
- Test system: 885724-159-R-J1-PDC complex spheroid viability
- Assay explanation: Anticancer human tumor 885724-159-R-J1-PDC cell line growth inhibition [POLQ];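 note: spheroids exposed to compounds for 7 days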
- Measurement parameters: second compound 10 µM; first compound 0.01 µM; active compounds read low
In plain terms, low viability, T/C, meaning strictly below 80%, gives yes, and everything else gives no.

CCc1c2c(nc3ccc(O)cc13)-c1cc3c(c(=O)n1C2)COC(=O)[C@]3(O)CC + COC1C(OC(N)=O)C(O)C(Oc2ccc3c(O)c(NC(=O)c4ccc(O)c(CC=C(C)C)c4)c(=O)oc3c2C)OC1(C)C = yes
COc1cccc(OCCCN)c1-c1cc(Nc2cnc(C#N)cn2)n[nH]1 + Cc1cccc(N(C)C(=O)C2C(O)CCN2c2nc(C)cc(C(F)(F)F)c2C#N)c1 = yes
Cn1ncnc1[C@H]1c2n[nH]c(=O)c3cc(F)cc(c23)N[C@@H]1c1ccc(F)cc1 + COC1C(OC(N)=O)C(O)C(Oc2ccc3c(O)c(NC(=O)c4ccc(O)c(CC=C(C)C)c4)c(=O)oc3c2C)OC1(C)C = no

Next molecule, please.
Report whether reported viability, T/C is lower than 80% (strictly) for C=CCn1c(=O)c2cnc(Nc3ccc(N4CCN(C)CC4)cc3)nc2n1-c1cccc(C(C)(C)O)n1 + COC1C(OC(N)=O)C(O)C(Oc2ccc3c(O)c(NC(=O)c4ccc(O)c(CC=C(C)C)c4)c(=O)oc3c2C)OC1(C)C
no

----------
Below, each of the compounds is paired with its reported viability, T/C value.
- Test system: 885724-159-R-J1-PDC complex spheroid viability
- Assay explanation: Anticancer human tumor 885724-159-R-J1-PDC cell line growth inhibition [POLQ];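 note: spheroids exposed to compounds for 7 days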
- Measurement parameters: second compound 10 µM; first compound 0.316 µM; active compounds read low
Report the figure in % without appending any unit label.

Example compounds with recorded viability, T/C:
COc1cc(C2c3cc4c(cc3C(OC3OC5COC(C)OC5C(O)C3O)C3COC(=O)C23)OCO4)cc(OC)c1O (stereo not given) + Nc1ccc(C#CCN(C(=O)Cc2ncc(C(F)(F)F)cc2C(F)(F)F)c2ccc(F)cc2)nn1 = 82.4
C#Cc1c(F)ccc2cc(O)cc(-c3ncc4c(N5CC6CCC(C5)N6)nc(OCC56CCCN5CC(F)C6)nc4c3F)c12 (stereo not given) + Nc1ccc(C#CCN(C(=O)Cc2ncc(C(F)(F)F)cc2C(F)(F)F)c2ccc(F)cc2)nn1 = 96.8
COc1ccc([C@@H](O)c2cc(-c3ncnc4cc(N5CCOCC5)ccc34)c(F)cc2Cl)nn1 + COC1C(OC(N)=O)C(O)C(Oc2ccc3c(O)c(NC(=O)c4ccc(O)c(CC=C(C)C)c4)c(=O)oc3c2C)OC1(C)C = 87.5

Name the reported viability, T/C value associated with the compound O=C(Nc1ccc(O)c(NS(=O)(=O)c2ccc(F)cc2)c1)c1ccc(-c2ccccc2)cc1 + COC1C(OC(N)=O)C(O)C(Oc2ccc3c(O)c(NC(=O)c4ccc(O)c(CC=C(C)C)c4)c(=O)oc3c2C)OC1(C)C
94.6

Name the reported viability, T/C value associated with the compound CCc1c2c(nc3ccc(O)cc13)-c1cc3c(c(=O)n1C2)COC(=O)[C@]3(O)CC + Cc1cccc(N(C)C(=O)C2C(O)CCN2c2nc(C)cc(C(F)(F)F)c2C#N)c1
30.1

Name the reported viability, T/C value associated with the compound CC1COCCN1c1cc(C2(O)CC3CCC(C2)O3)c2cnn(-c3ccn[nH]3)c2n1 (stereo not given) + Nc1ccc(C#CCN(C(=O)Cc2ncc(C(F)(F)F)cc2C(F)(F)F)c2ccc(F)cc2)nn1
49.4

Name the reported viability, T/C value associated with the compound CCc1c2c(nc3ccc(O)cc13)-c1cc3c(c(=O)n1C2)COC(=O)[C@]3(O)CC + COC1C(OC(N)=O)C(O)C(Oc2ccc3c(O)c(NC(=O)c4ccc(O)c(CC=C(C)C)c4)c(=O)oc3c2C)OC1(C)C
27.5
